Sourced from ChEMBL document CHEMBL1275461

EXPERIMENT_DESCRIPTION: AUC (0 to 24 hrs) in pulmonary tuberculosis patient at 400 mg/kg, po once daily for 7 days by liquid chromatography-MS/MS analysis
Format: ADME, organism-based
Design: time < 24 hr, dose 400 mg/kg, route oral
CONDITION_LABEL: human, plasma
ATTRIBUTE_MEASURED: AUC at 24 h (ng·h/mL)

MOLECULAR_STRING | ATTRIBUTE_MEASURED | DATA_VALUE
COc1nc2ccc(Br)cc2cc1[C@@H](c1ccccc1)[C@@](O)(CCN(C)C)c1cccc2ccccc12 | AUC at 24 h | 64800
